Test: Plasma concentration versus time of Compound I and metabolite Compound III in patients dosed QD or BID with Form B of Compound II plus fulvestrant
Format: in vivo, human
Details: human, plasma, oral, 650 mg, Cohort 5, 650 mg QD of Form B, Day 29, 3.0 h; read-out: Compound I Concentration, Min
Value type: concentration at 3 h
Answer format reminder: number followed by unit.

concentration at 3 h for CC(C)N1CCN(c2ccc(Nc3ncc4cc5n(c4n3)C3(CCCCC3)CNC5=O)nc2)CC1 [Compound I] is 17.2 ng/mL

====

Experiment: Noncompartmental pharmacokinetic parameters (Cmax, Tmax, AUC, Racc) in QD and BID cohorts of Form B
Format: in vivo, human
Settings: human, plasma, oral, 500 mg, Compound III; 500 mg QD of Form B; Cohort 4; Day 29; read-out: Cmax (Mean)
Value type: Cmax (ng/mL)
I only need the number, in ng/mL, no unit after it.

Cmax for O=C1NCC2(CCCCC2)n2c1cc1cnc(Nc3ccc(N4CCNCC4)cn3)nc12 [Compound III] is 5.98

====

Experiment: Plasma concentration versus time of Compound I and metabolite Compound III in patients dosed QD or BID with Form B of Compound II plus fulvestrant
Type: in vivo, human
Settings: human, plasma, oral, 100 mg, Cohort 6, 100 mg BID of Form B, Day 29, 1.0 h; read-out: Compound I Concentration, Min
Description: Patients were enrolled into 1 of 2 parallel, independently operating, dose-escalation dosing cohorts with Form B of Compound II administered continuously either once daily (QD) or twice daily (BID) with food with fixed-dose fulvestrant (intramuscularly every 14 days for the first three injections and then every 28 days). Pre- or perimenopausal patients also received goserelin for the duration of study treatment. […]
Value type: concentration at 1 h
Answer format reminder: number followed by unit.

concentration at 1 h for `CC(C)N1CCN(c2ccc(Nc3ncc4cc5n(c4n3)C3(CCCCC3)CNC5=O)nc2)CC1` is 1.79 ng/mL

====

Experiment: Plasma concentration versus time of Compound I and metabolite Compound III in patients dosed QD or BID with Form B of Compound II plus fulvestrant
Type: in vivo, human
Settings: human, plasma, oral, 100 mg, Cohort 6, 100 mg BID of Form B, Day 29, 4.0 h; read-out: Compound I Concentration, Median
Value type: concentration at 4 h (ng/mL)
I only need the number, in ng/mL, no unit after it.

concentration at 4 h for `CC(C)N1CCN(c2ccc(Nc3ncc4cc5n(c4n3)C3(CCCCC3)CNC5=O)nc2)CC1` is 9.26

====

Test: Noncompartmental pharmacokinetic parameters (Cmax, Tmax, AUC, Racc) in QD and BID cohorts of Form B
Assay type: in vivo, human
Details: human, plasma, oral, 300 mg, Compound I; 300 mg QD of Form B; Cohort 2; Day 29; read-out: Cmax (Median)
Experimental: Analysis of plasma concentration versus time data for calculation of standard pharmacokinetic (PK) parameters following oral administration was conducted using Phoenix WinNonlin version 6.3 using actual blood sampling times. […]
Value type: Cmax (ng/mL)
I only need the number, in ng/mL, no unit after it.

Cmax for CC(C)N1CCN(c2ccc(Nc3ncc4cc5n(c4n3)C3(CCCCC3)CNC5=O)nc2)CC1 [Compound I] is 40.5

====

Experiment: Plasma concentration versus time of Compound I and metabolite Compound III in patients dosed QD or BID with Form B of Compound II plus fulvestrant
Assay type: in vivo, human
Conditions: human, plasma, oral, 100 mg, 100 mg BID of Form B, Day 1, 1.0 h, Mean; read-out: Compound III Concentration
From the text: Patients were enrolled into 1 of 2 parallel, independently operating, dose-escalation dosing cohorts with Form B of Compound II administered continuously either once daily (QD) or twice daily (BID) with food with fixed-dose fulvestrant (intramuscularly every 14 days for the first three injections and then every 28 days). Pre- or perimenopausal patients also received goserelin for the duration of study treatment. […]
Value type: concentration at 1 h (ng/mL)
I only need the number, in ng/mL, no unit after it.

concentration at 1 h for `O=C1NCC2(CCCCC2)n2c1cc1cnc(Nc3ccc(N4CCNCC4)cn3)nc12` is 0.248

Hello, the source for this data is patent US11357779B2, in case you need it.
